These data points were gathered from patent US10975037B2.

Target: human RORγt ligand binding domain (RORγt LBD) (Homo sapiens (Human), UniProt P51449)
Sequence (P51449 other isoform, or with tags, fused parts or gaps): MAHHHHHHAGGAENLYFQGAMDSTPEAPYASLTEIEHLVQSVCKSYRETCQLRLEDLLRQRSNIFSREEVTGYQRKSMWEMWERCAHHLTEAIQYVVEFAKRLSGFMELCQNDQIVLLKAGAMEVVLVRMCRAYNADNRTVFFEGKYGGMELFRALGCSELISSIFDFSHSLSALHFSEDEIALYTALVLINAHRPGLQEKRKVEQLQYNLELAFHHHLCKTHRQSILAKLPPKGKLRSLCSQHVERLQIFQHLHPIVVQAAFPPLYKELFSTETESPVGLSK
Test: RORγt ThermoFluor® assay (thermal shift binding)
Settings: read-out: ThermoFluor® Assay, Kd
Consider the following compounds and their measured pKd readings.
pKd here is simply -log10 of the concentration when that concentration is written in mol/L.

Known pKd results, listed for orientation:
COCCn1nc(C(=O)NC[C@]2(O)CC[C@@H](S(C)(=O)=O)CC2)c(Cl)c1-c1ccc(CC(C)(C)C(F)(F)F)cc1OC [Example 186] | 8.11
CCn1nc(C(=O)NC[C@H]2CC[C@H](S(C)(=O)=O)CC2)c(Cl)c1-c1ccc(N[C@H](C)C(F)(F)F)cc1Cl [Example 176] | 8.42
CCn1nc(C(=O)NC[C@H]2CC[C@H](S(C)(=O)=O)CC2)c(Cl)c1-c1ccc(CCC(F)(F)F)cc1F [Example 179] | 7.82
CC(C)(Cc1ccc(-c2c(Cl)c(C(=O)NC[C@]3(O)CC[C@@H](S(C)(=O)=O)CC3)nn2CCCC#N)c(OC(F)F)c1)C(F)(F)F [Example 229] | 8.51
CCn1nc(C(=O)NC[C@]2(O)CC[C@@H](S(C)(=O)=O)CC2)c(Cl)c1-c1ccc(C2(O)CCC(F)(F)CC2)cc1OC(F)F [Example 104] | 7.33

Kindly review the next compound as well.
Ask | Using known records, supply pKd for CCn1nc(C(=O)NC[C@H]2CC[C@H](S(C)(=O)=O)CC2)c(Cl)c1-c1ccc(NC(C(F)(F)F)C(F)(F)F)cc1OC [Example 216]
Reply | 9.01
